Biological target: Ghrelin receptor (Homo sapiens)
Assay: Receptor Selection and Amplification Technology (R-SAT) assay
Assay type: cell-based
Set-up: expressed in transfected cells; host or cells: NIH3T3
Conditions: negative logarithm of ligand concentration causing 50% inhibition of constitutive receptor response; transfected NIH3T3 cells; '—' not defined (nd used separately); read-out: RSAT pIC50 (converted)
Each entry falls into one class according to its IC50; the ranges are bottom end: < 0.03 µM; midrange: ≥ 0.03 µM and < 0.5 µM; top end: ≥ 0.5 µM

Known results for compounds:
COMPOUND: CCCON1CCN(CCCn2cc(C(=O)C(F)(F)F)c3ccccc32)CC1
CATEGORY: midrange
//
COMPOUND: COc1cccc2c(C(=O)NCc3cccc(C)c3)cn(CCCN3CCC(Oc4cccc(Cl)c4)CC3)c12
CATEGORY: midrange
//
COMPOUND: COc1ccc2[nH]c3c(c2c1)CCN(CCCn1cc(C(=O)CC(C)C)c2ccccc21)C3
CATEGORY: top end
//
COMPOUND: CC(=O)c1cn(CCCN2CCCN(Cc3ccccc3Cl)CC2)c2c(C)cccc12
CATEGORY: bottom end

Asked: Band assignment needed for CC(=O)c1cn(CCCN2CCN(Cc3ccc(Cl)cc3Cl)CC2)c2c(C#N)cccc12 please.
Given back: bottom end

Asked: Hey, which category is COc1cccc2c(C(=O)C3CC3)cn(CCCN3CCC(Oc4cccc(Cl)c4)CC3)c12 in, do you know?
Given back: bottom end

Asked: Which band does COc1ccccc1C1CCN(CCCCn2cc(C(C)=O)c3ccccc32)CC1 fall in?
Given back: top end

Asked: Into which bin does this compound go? O=C(c1cn(CCCN2CCC(Cc3ccccc3)CC2)c2ccccc12)C(F)(F)F
Given back: top end

Asked: Form: Item = CC(=O)c1cn(CCCN2CCC(c3nc4ccccc4s3)CC2)c2ccccc12 [drawing 462] ; Class = ?
Given back: midrange

Asked: Hey, which category is CC(=O)c1cn(CCCN2CCC(C(=O)c3ccccc3)CC2)c2c(Br)cccc12 in, do you know?
Given back: midrange

Asked: Given COc1cccc2c(C(C)=O)cn(CCCN3CCN(Oc4ccccc4Cl)CC3)c12 , name the class its IC50 places it in.
Given back: bottom end

Asked: Could you tell me which band CC(=O)c1cn(CC(C)CN2CCN(C(C)c3ccccc3)CC2)c2ccccc12 (centres unmarked) belongs to?
Given back: top end

###

Target: Ghrelin receptor (Homo sapiens, UniProt Q92847)
Sequence (Q92847 whole entry): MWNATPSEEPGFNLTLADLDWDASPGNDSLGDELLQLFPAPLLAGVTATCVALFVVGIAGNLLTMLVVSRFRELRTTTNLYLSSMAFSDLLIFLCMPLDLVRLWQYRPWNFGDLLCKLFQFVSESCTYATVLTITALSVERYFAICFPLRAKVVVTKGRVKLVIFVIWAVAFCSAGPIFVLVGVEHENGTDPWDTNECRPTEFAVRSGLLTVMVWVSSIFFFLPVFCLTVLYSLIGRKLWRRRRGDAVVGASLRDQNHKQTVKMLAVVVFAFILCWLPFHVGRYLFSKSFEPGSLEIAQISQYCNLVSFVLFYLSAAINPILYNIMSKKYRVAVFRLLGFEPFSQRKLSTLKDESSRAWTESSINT
Test: Receptor Selection and Amplification Technology (R-SAT) assay
Format: cell-based
Set-up: expressed in transfected cells; host or cells: NIH3T3
Conditions: negative logarithm of ligand concentration causing 50% inhibition of constitutive receptor response; transfected NIH3T3 cells; '—' not defined (nd used separately); read-out: RSAT pIC50 (converted)
MEASURED PARAMETER: log10 of IC50 (log10 of the value in nM)
Answers are given as log10 of IC50 in nM.

Please review the entries below; each comes with its answer.
COMPOUND: COc1ccccc1C1CCN(CCCn2cc(C(=O)C(F)(F)F)c3ccccc32)CC1
TARGET SYSTEM: Ghrelin receptor (Homo sapiens, UniProt Q92847)
log10 of IC50: 3.20
--
COMPOUND: CC(=O)c1cn(CCCNCCOc2ccccc2)c2c(C)cccc12
TARGET SYSTEM: Ghrelin receptor (Homo sapiens, UniProt Q92847)
log10 of IC50: 1.60
--
COMPOUND: COc1ccccc1C1CCN(CCCn2cc(C(C)=O)c3cccc(Cl)c32)CC1
TARGET SYSTEM: Ghrelin receptor (Homo sapiens, UniProt Q92847)
log10 of IC50: 2.70

Dear reader, for each entry below, please note its log10 of IC50.
1. CCCCC1CCN(CCCn2cc(C(C)=O)c3cccc(OC)c32)CC1
2. CC(=O)c1cn(CCCN2CCC(c3nc(-c4cccnc4)no3)CC2)c2c(C)cccc12
3. COc1ccc2c(C(C)=O)cn(CCCN3CCC(Oc4ccccc4Cl)CC3)c2c1
4. CC(=O)c1cn(CCN2C3CCC2CC(OCC2CC2)C3)c2ccccc12 (centres unmarked)
5. CC(=O)c1cn(CCCN2C3CCC2CC(Oc2ccc(F)cc2)C3)c2c(Cl)cccc12 (centres unmarked)
6. CC(=O)c1cn(CCCCN2CCC(Cc3ccccc3)CC2)c2ccccc12
7. COc1cccc2c(C#N)cn(CCCN3CCC(Oc4cccc(Cl)c4)CC3)c12
8. CCCOC1CCN(CCCn2cc(C(C)=O)c3ccc(Br)cc32)CC1

Given back:
1. 1.30
2. 2.30
3. 2.40
4. 2.40
5. 2.00
6. 3.60
7. 3.10
8. 2.40

Go through the items and report each one's log10 of IC50.
1. CC(=O)c1cn(CCCN2C3CCC2CC(Oc2ccc(F)cc2)C3)c2c(C#N)cccc12 (centres unmarked)
2. CC(=O)c1cn(CCCN2CCCN(Cc3ccccc3Cl)CC2)c2c(Br)cccc12
3. O=C(c1cn(CCCN2CCC(c3nc4ccccc4s3)CC2)c2ccccc12)C(F)(F)F

Given back:
1.70
0.70
2.60

Could you report log10 of IC50 for every entry in the following list?
1. CC(=O)c1cn(CCCN2C3CCC2CC(CCc2ccc(Cl)cc2)C3)c2ncccc12 (centres unmarked)
2. CCC(=O)c1cn(CCCN2CCC(Cc3ccccc3)CC2)c2ccccc12

Given back:
[1.90, 3.20]

Provide each entry's log10 of IC50 from the list below.
1. CCCCC(=O)c1cn(CCCN2CCN(C(C)c3ccccc3)CC2)c2ccc(OC)cc12 (centres unmarked)
2. COc1cccc2c(C(C)=O)cn(CCCN3CCN(c4c(C)cccc4C)CC3)c12
3. CC(=O)c1cn(CCCN2CCC(Oc3ccc(F)cc3)CC2)c2c(C)cccc12
4. CC(=O)c1cn(CCCN2CCC(Oc3ccccc3Cl)CC2)c2c(C)cccc12

Given back:
3.10
0.80
0.70
1.30
